Please respond with reported pIC50 for every item in the list.
- System: H358 cells
- protocol-notes: Antiproliferative activity against H358 cells (Cell Titer Glow, ultra-low attachment plate)
- Assay type: cell-based
- assay-setup: Homo sapiens, NCI-H358, 72 h, three days after addition of compound
pIC50: −log10 of the molar value.

Simply: C=CC(=O)N1CC2(CCN(c3nc(N4CC(N5CC6(CC6)C5)C4)nc4c(OCC(F)(F)F)c(-c5c(C)ccc6[nH]nc(C)c56)c(C5CC5)cc34)CC2)C1 , H358 cells, pIC50 = > 6.52

Simply: C=CC(=O)N1CC2(CCN(c3nc(N4CC5(CCCN5CCF)C4)nc4c(OCC(F)(F)F)c(-c5c(C)ccc6[nH]ncc56)c(C5CC5)cc34)CC2)C1 , H358 cells, pIC50 = > 6.52

Simply: C=CC(=O)N1CC2(CCN(c3nc(N4CC(N5CC6(CC6)C5)C4)nc4c(OCC(F)F)c(-c5c(C)ccc6[nH]ncc56)c(C5CC5)cc34)CC2)C1 , H358 cells, pIC50 = > 6.52

Simply: C=CC(=O)N1CC2(CCN(c3nc(N4CC(N5CCC6(CC6)C5)C4)nc4c(OCC(F)(F)F)c(-c5c(C)ccc6[nH]ncc56)c(C5CC5)cc34)CC2)C1 , H358 cells, pIC50 = > 6.52

Simply: C=CC(=O)N1CC2(CCN(c3nc(N4CC5(CCN5CCOC)C4)nc4c(OCC(F)(F)F)c(-c5c(C)ccc6[nH]ncc56)c(C5CC5)cc34)CC2)C1 , H358 cells, pIC50 = > 6.52
